The following molecules are shown together with reported pIC50 values.
target-under-test: menin/MLL (terbium chelate-labeled menin, FITC-MBM1 peptide) (Homo sapiens, UniProt O00255, T541A)
Construct: Menin (a.a 1-610-6xhis tag, 2.3 mg/mL in 20 mM Hepes)
Sequence (O00255 with tags, fused parts or gaps T541A): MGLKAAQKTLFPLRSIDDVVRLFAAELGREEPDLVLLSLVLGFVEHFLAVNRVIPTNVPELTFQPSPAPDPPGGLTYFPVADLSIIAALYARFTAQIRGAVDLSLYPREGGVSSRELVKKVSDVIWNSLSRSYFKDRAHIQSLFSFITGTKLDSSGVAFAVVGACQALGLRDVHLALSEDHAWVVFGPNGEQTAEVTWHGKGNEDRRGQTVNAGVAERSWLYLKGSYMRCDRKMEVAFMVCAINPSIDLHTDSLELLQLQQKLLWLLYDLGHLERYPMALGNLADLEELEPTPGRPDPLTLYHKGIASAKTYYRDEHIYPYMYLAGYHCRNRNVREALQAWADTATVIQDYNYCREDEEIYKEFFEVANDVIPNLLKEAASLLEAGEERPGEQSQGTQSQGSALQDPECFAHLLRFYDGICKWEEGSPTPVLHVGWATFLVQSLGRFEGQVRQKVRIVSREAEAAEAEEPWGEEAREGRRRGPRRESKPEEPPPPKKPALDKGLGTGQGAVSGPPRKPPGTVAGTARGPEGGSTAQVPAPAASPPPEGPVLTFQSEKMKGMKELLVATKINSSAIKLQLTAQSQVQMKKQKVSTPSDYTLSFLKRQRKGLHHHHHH
protocol: Menin/MLL homogenous time-resolved fluorescence (HTRF) assay
condition-info: 30 min incubation
Scale: negative log10 of molar concentration, which is what pIC50 denotes.

Past entries and their recorded results:
INSERT INTO results (molecule, measurement_kind, value) VALUES
  ('Cc1cncc2c1c(C[C@H]1CN[C@H](C)C1)cn2-c1ccc(F)cc1C(=O)N(C)C(C)C', 'pIC50', 7.98),
  ('CC(=O)N1CCC(CN2CC[C@@H](Cc3cn(-c4ccc(F)cc4C(=O)N(C[C@@H](C)O)C(C)C)c4cncc(C)c34)C2)CC1 (single isomer, unassigned) [Compound 320a]', 'pIC50', 9.72),
  ('Cc1cncc2c1c(C[C@@H]1CCN([C@H](CCO)C3CCOCC3)C1)cn2-c1ccc(F)cc1C(=O)N(C)C(C)C (single isomer, unassigned) [Compound 253a]', 'pIC50', 8.83),
  ('Cc1cncc2c1c(CC1CNC(CC3CCOCC3)C1)cn2-c1ccc(F)cc1C(=O)N(C)C(C)C (single isomer, unassigned) [Compound 134a]', 'pIC50', 10.49),
  ('COCC1CCCN1C(=O)c1cc(F)ccc1-n1cc(CC2CN(CC3CCOCC3)C2)c2c(C)cncc21 (stereo not drawn)', 'pIC50', 9.62);

// switching to the query molecule
(Q) Specify pIC50 for Cc1cncc2c1c(CC1CCN(CC3CCN(C(=O)[C@H](C)O)CC3)C1)cn2-c1ccc(F)cc1C(=O)N(C)C(C)C (single isomer, unassigned) and stop.
(A) 10.38
